molecular target: Adrenergic receptor alpha-2 (Rattus norvegicus, UniProt P22086+P19328+P22909); assay: Alpha-2 adrenergic receptor blocking activity by antagonism of clonidine induced depression of twitch response of field stimulated prostatic portion of rat vas deferens; type: functional, tissue-based
value-type: IC50 (µM)
Write it as a number; the unit µM goes unstated.

Which IC50 value belongs to COc1ccccc1CNCCCCCNCCSSCCNCCCCCNCc1ccccc1OC ?
25.8

# iterate: COc1ccccc1CNCCCCCCCCNCCSSCCNCCCCCCCCNCc1ccccc1OC
1.22

# iterate: COc1ccccc1CNCCCCCCNCCSSCCNCCCCCCNCc1ccccc1OC
0.82

# iterate: COc1ccccc1CNCCCCCCCNCCSSCCNCCCCCCCNCc1ccccc1OC
1.04

* * *

assay: Inhibition of epinephrine induced human blood platelet aggregation; assay type: functional
value-type: pIC50
In simple prose, pIC50 is minus the logarithm base ten of a concentration in moles per litre.

Which pIC50 value belongs to COc1ccccc1CNCCCCCCNCCSSCCNCCCCCCNCc1ccccc1OC [BENEXTRAMINE] ?
4.50

# iterate: COc1ccccc1CNCCCCCCCNCCSSCCNCCCCCCCNCc1ccccc1OC
4.69

# iterate: COc1ccccc1CNCCCCCCCCCNCCSSCCNCCCCCCCCCNCc1ccccc1OC
5.64

# iterate: COc1ccccc1CNCCCCCCCCCCNCCSSCCNCCCCCCCCCCNCc1ccccc1OC
5.66

* * *

molecular target: Adrenergic receptor alpha (Rattus norvegicus) (UniProt P15823+P23944+P43140+P22086+P19328+P22909); test: Ratio of IC50 towards alpha1 to alpha-2 receptors of rat vas deferens; type: protein assay
Exercise: for every item that follows, state its recorded Selectivity.

Which Selectivity value belongs to COc1ccccc1CNCCCCCCCCCCCNCCSSCCNCCCCCCCCCCCNCc1ccccc1OC ?
< 2.57

# iterate: COc1ccccc1CNCCCCCCCCCCCCNCCSSCCNCCCCCCCCCCCCNCc1ccccc1OC
< 0.41

# iterate: COc1ccccc1CNCCCCCCNCCSSCCNCCCCCCNCc1ccccc1OC [BENEXTRAMINE]
9.2

# iterate: COc1ccccc1CNCCCCCCCNCCSSCCNCCCCCCCNCc1ccccc1OC
53.1

# iterate: COc1ccccc1CNCCCCCNCCSSCCNCCCCCNCc1ccccc1OC
2.16

# iterate: C1=CC(CNCCCCCCCCCCCCNCCSSCCNCCCCCCCCCCCCNCC2C=CC=N2)N=C1 (stereo not given)
< 0.37

# iterate: COc1ccccc1CNCCCCCCCCCCCCN(C)CCSSCCN(C)CCCCCCCCCCCCNCc1ccccc1OC
< 2.35

# iterate: COc1ccccc1CNCCCCCCCCNCCSSCCNCCCCCCCCNCc1ccccc1OC
80.7

# iterate: COc1ccccc1CNCCCCCCCCCNCCSSCCNCCCCCCCCCNCc1ccccc1OC
< 3.4

# iterate: COc1ccccc1CNCCCCCCCCCCNCCSSCCNCCCCCCCCCCNCc1ccccc1OC
< 3.14

* * *

species: Rattus norvegicus; assay: Alpha-1-adrenoceptor blocking activity by antagonism of (-)-norepinephrine induced contractions of epididymal portion of rat vas deferens; assay type: functional
value-type: pIC50
In simple prose, pIC50 is minus the logarithm base ten of a concentration in moles per litre.

Which pIC50 value belongs to C1=CC(CNCCCCCCCCCCCCNCCSSCCNCCCCCCCCCCCCNCC2C=CC=N2)N=C1 (stereo not given) ?
5.14

# iterate: COc1ccccc1CNCCCCCCCCCCNCCSSCCNCCCCCCCCCCNCc1ccccc1OC
4.20

# iterate: COc1ccccc1CNCCCCCCCCCCCCNCCSSCCNCCCCCCCCCCCCNCc1ccccc1OC
5.08

# iterate: COc1ccccc1CNCCCCCCCNCCSSCCNCCCCCCCNCc1ccccc1OC
4.26

# iterate: COc1ccccc1CNCCCCCCNCCSSCCNCCCCCCNCc1ccccc1OC
5.12

* * *

organism: Rattus norvegicus; assay: Alpha-1-adrenoceptor blocking activity by antagonism of (-)-norepinephrine induced contractions of epididymal portion of rat vas deferens; format: functional
value-type: IC50 (µM)
Write it as a number; the unit µM goes unstated.

Which IC50 value belongs to COc1ccccc1CNCCCCCCCCCNCCSSCCNCCCCCCCCCNCc1ccccc1OC ?
68

# iterate: COc1ccccc1CNCCCCCNCCSSCCNCCCCCNCc1ccccc1OC
55.8

# iterate: COc1ccccc1CNCCCCCCCCCCCNCCSSCCNCCCCCCCCCCCNCc1ccccc1OC
51.3

# iterate: COc1ccccc1CNCCCCCCCCNCCSSCCNCCCCCCCCNCc1ccccc1OC
98.5

# iterate: COc1ccccc1CNCCCCCCCCCCCCN(C)CCSSCCN(C)CCCCCCCCCCCCNCc1ccccc1OC
46.9

* * *

Exercise: for every item that follows, state its recorded pIC50.
assay: Inhibition of epinephrine induced human blood platelet aggregation; type: functional
In simple prose, pIC50 is minus the logarithm base ten of a concentration in moles per litre.

Which pIC50 value belongs to COc1ccccc1CNCCCCCCCCCCCCNCCSSCCNCCCCCCCCCCCCNCc1ccccc1OC ?
5.77

# iterate: COc1ccccc1CNCCCCCCCCCCCNCCSSCCNCCCCCCCCCCCNCc1ccccc1OC
5.77

# iterate: Nc1ncnc2c1ncn2[C@@H]1O[C@H](CO)[C@@H](O)[C@H]1O
5.74

# iterate: COc1ccccc1CNCCCCCNCCSSCCNCCCCCNCc1ccccc1OC
4.34

# iterate: COc1ccccc1CNCCCCCCCCNCCSSCCNCCCCCCCCNCc1ccccc1OC
5.27
